Tested on: HepG2 (hepatocellular carcinoma)
Assay: Cytotoxicity (CellTiter-Glo) assay, HepG2
Format: cell-based
Conditions: Homo sapiens, HepG2, read-out: IC50, Cytotoxicity HepG2
measurement label: IC50 (nM)

- compound: "CN(CC1(CO)CCCC1)C(=O)CCCCCCCNc1c(Nc2ccncc2)c(=O)c1=O"
  measurement label: "IC50"
  result: 12.5
- compound: "N#CN=C(NCCCCCCOc1ccc(Cl)cc1)Nc1ccncc1 [CHS-828, reference compound]"
  measurement label: "IC50"
  result: 1.16
- compound: "Nc1cccc(C(=O)N2CCC(CCCCNC(=O)/C=C/c3cccnc3)CC2)c1"
  measurement label: "IC50"
  result: 8
- compound: "CN(CC1(CO)CCCC1)C(=O)CCCCCCCN/C(=N\\C#N)Nc1ccncc1"
  measurement label: "IC50"
  result: 1.08
- compound: "CCN(CCON(C(=O)CCCCCCNc1c(Nc2ccncc2)c(=O)c1=O)C1CCCCC1)C(=O)c1cccc(N)c1"
  measurement label: "IC50"
  result: 35
- compound: "CN(CCO)C(=O)CCCCCCCNc1c(Nc2ccncc2)c(=O)c1=O"
  measurement label: "IC50"
  result: 1000
- compound: "O=C(CCCCCCCNc1c(Nc2ccncc2)c(=O)c1=O)N1CC(O)C1"
  measurement label: "IC50"
  result: 1000
- compound: "N#C/N=C(\\NCCCCCCCC(=O)N1CCC(O)CC1)Nc1ccncc1"
  measurement label: "IC50"
  result: 25

###

Target: NAMPT (Homo sapiens)
Sequence (P43490 whole entry): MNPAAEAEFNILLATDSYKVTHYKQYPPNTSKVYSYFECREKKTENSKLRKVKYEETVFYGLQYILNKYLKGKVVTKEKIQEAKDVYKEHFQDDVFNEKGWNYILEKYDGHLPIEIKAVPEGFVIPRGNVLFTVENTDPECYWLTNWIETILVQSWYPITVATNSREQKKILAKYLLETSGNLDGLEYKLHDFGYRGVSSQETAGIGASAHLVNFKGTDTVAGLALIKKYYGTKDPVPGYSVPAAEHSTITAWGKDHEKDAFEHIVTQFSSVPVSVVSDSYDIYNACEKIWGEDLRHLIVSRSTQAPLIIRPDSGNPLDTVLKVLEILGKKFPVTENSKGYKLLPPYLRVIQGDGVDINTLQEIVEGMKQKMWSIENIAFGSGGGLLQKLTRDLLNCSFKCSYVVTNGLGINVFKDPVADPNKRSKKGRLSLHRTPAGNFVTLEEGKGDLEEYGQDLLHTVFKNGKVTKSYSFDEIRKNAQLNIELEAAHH

- molecule: "Nc1cccc(C(=O)N2CCC(CCCCNC(=O)/C=C/c3cccnc3)CC2)c1 [compound 3]"
  IC50, nM: 40
- molecule: "O=C(/C=C/c1cccnc1)NCCCCC1CCN(C(=O)c2ccc(OCCO)cc2)CC1 [compound 10]"
  IC50, nM: 91
- molecule: "CN(CC1(CO)CCCC1)C(=O)CCCCCCCNc1c(Nc2ccncc2)c(=O)c1=O [compound 69]"
  IC50, nM: 35
- molecule: "CN(CCO)C(=O)CCCCCCCNc1c(Nc2ccncc2)c(=O)c1=O [compound 72]"
  IC50, nM: 29
- molecule: "CN(CCO)C(=O)CCCCCCCN/C(=N\\C#N)Nc1ccncc1 [compound 83]"
  IC50, nM: 32
- molecule: "O=C(CCCCCCNc1c(Nc2ccncc2)c(=O)c1=O)N(OCCN1CCOCC1)C1CCCCC1 [compound 52, reference compound]"
  IC50, nM: 41
- molecule: "O=C(/C=C/c1cccnc1)NCCCCC1CCN(C(=O)c2cccc(OCCO)c2)CC1 [compound 9]"
  IC50, nM: 80
- molecule: "Nc1ccc(C(=O)N2CCC(CCCCNC(=O)/C=C/c3cccnc3)CC2)cc1 [compound 4]"
  IC50, nM: 114
- molecule: "O=C(CCCCCCCNc1c(Nc2ccncc2)c(=O)c1=O)N(CCO)Cc1ccco1 [compound 66]"
  IC50, nM: 24
- molecule: "CN(CCON(C(=O)CCCCCCNC(=O)Nc1ccncc1)C1CCCCC1)C(=O)c1cccc(N)c1 [compound 43]"
  IC50, nM: 82
- molecule: "N#C/N=C(\\NCCCCCCCC(=O)N(CCO)Cc1ccco1)Nc1ccncc1 [compound 81]"
  IC50, nM: 24
- molecule: "O=C(/C=C/c1cccnc1)NCCCCC1CCN(C(=O)c2ccccc2O)CC1 [compound 8]"
  IC50, nM: 101

###

IC50 listing for selected compounds.
System: HepG2 (hepatocellular carcinoma)
Assay: Cytotoxicity (CellTiter-Glo) assay, HepG2
Type: cell-based
Details: Homo sapiens, HepG2, read-out: IC50, Cytotoxicity HepG2
Method: Example 99: Binding and cytoxicity of NAMPTi compounds. NAMPTi compounds and derivatives thereof bearing functional groups on their NAMPT Tail (TN) Units for covalent attachment as a NAMPT Drug Unit to a Linker Unit of a Drug Linker compound or Ligand Drug Conjugate were evaluated for binding to enzymatically competent NAMPT using a fluorescence polarization assay as described in Example X, and for cytotoxicity using the CellTiter-Glo™ assay as described in Example XX. […]

- compound: "CN(CCON(C(=O)CCCCCCNC(=O)Nc1ccncc1)C1CCCCC1)C(=O)c1cccc(N)c1"
  unit info: "µM"
  IC50: 0.004
- compound: "Nc1ccccc1C(=O)N1CCC(CCCCNC(=O)/C=C/c2cccnc2)CC1"
  unit info: "µM"
  IC50: 1
- compound: "O=C(CCCCCCCNc1c(Nc2ccncc2)c(=O)c1=O)N1CCC(O)CC1"
  unit info: "µM"
  IC50: 0.948
- compound: "O=C(CCCCCCNc1c(Nc2ccncc2)c(=O)c1=O)N(OCCN1CCOCC1)C1CCCCC1 [compound 52, reference compound]"
  unit info: "µM"
  IC50: 0.00875
- compound: "O=C(/C=C/c1cccnc1)NCCCCC1CCN(C(=O)c2cccc(O)c2)CC1"
  unit info: "µM"
  IC50: 0.029

###

System: BxPC-3 (pancreatic adenocarcinoma)
Assay: Cytotoxicity (CellTiter-Glo) assay, BxPC-3
Assay type: cell-based
Conditions: Homo sapiens, BXPC-3, read-out: IC50, Cytotoxicity BxPC-3
pIC50: −log10 of the molar value.
measurement label: pIC50

- compound: "O=C(/C=C/c1cccnc1)NCCCCC1CCN(C(=O)c2cccc(O)c2)CC1"
  tested on: "BxPC-3 (pancreatic adenocarcinoma)"
  measurement label: "pIC50"
  result: 6.71
- compound: "Nc1cccc(C(=O)N2CCC(CCCCNC(=O)/C=C/c3cccnc3)CC2)c1"
  tested on: "BxPC-3 (pancreatic adenocarcinoma)"
  measurement label: "pIC50"
  result: 7.41
- compound: "CN(CCO)C(=O)CCCCCCCNc1c(Nc2ccncc2)c(=O)c1=O"
  tested on: "BxPC-3 (pancreatic adenocarcinoma)"
  measurement label: "pIC50"
  result: 6.00
- compound: "N#CN=C(NCCCCCCOc1ccc(Cl)cc1)Nc1ccncc1 [CHS-828, reference compound]"
  tested on: "BxPC-3 (pancreatic adenocarcinoma)"
  measurement label: "pIC50"
  result: 8.10
- compound: "N#C/N=C(\\NCCCCCCCC(=O)N(CCO)Cc1ccco1)Nc1ccncc1"
  tested on: "BxPC-3 (pancreatic adenocarcinoma)"
  measurement label: "pIC50"
  result: 7.75
- compound: "Nc1ccccc1C(=O)N1CCC(CCCCNC(=O)/C=C/c2cccnc2)CC1"
  tested on: "BxPC-3 (pancreatic adenocarcinoma)"
  measurement label: "pIC50"
  result: 6.16
- compound: "CN(CCO)C(=O)CCCCCCCN/C(=N\\C#N)Nc1ccncc1"
  tested on: "BxPC-3 (pancreatic adenocarcinoma)"
  measurement label: "pIC50"
  result: 6.05
- compound: "O=C(CCCCCCCNc1c(Nc2ccncc2)c(=O)c1=O)N(CCO)Cc1ccco1"
  tested on: "BxPC-3 (pancreatic adenocarcinoma)"
  measurement label: "pIC50"
  result: 6.68
- compound: "CCN(CCON(C(=O)CCCCCCNc1c(Nc2ccncc2)c(=O)c1=O)C1CCCCC1)C(=O)c1cccc(N)c1"
  tested on: "BxPC-3 (pancreatic adenocarcinoma)"
  measurement label: "pIC50"
  result: 6.90
- compound: "N#C/N=C(\\NCCCCCCCC(=O)N1CCC(O)CC1)Nc1ccncc1"
  tested on: "BxPC-3 (pancreatic adenocarcinoma)"
  measurement label: "pIC50"
  result: 6.77

###

Tested on: HepG2 (hepatocellular carcinoma)
Assay: Cytotoxicity (CellTiter-Glo) assay, HepG2
Type: cell-based
Settings: Homo sapiens, HepG2, read-out: IC50, Cytotoxicity HepG2
IC50 under 60 nM gets T, anything at or over 60 nM gets F.

- compound: "N#C/N=C(\\NCCCCCCCC(=O)N(CCO)Cc1ccco1)Nc1ccncc1"
  tested on: "HepG2 (hepatocellular carcinoma)"
  cat: "T"
- compound: "O=C(/C=C/c1cccnc1)NCCCCC1CCN(C(=O)c2ccccc2O)CC1"
  tested on: "HepG2 (hepatocellular carcinoma)"
  cat: "F"
- compound: "CN(CCO)C(=O)CCCCCCCN/C(=N\\C#N)Nc1ccncc1"
  tested on: "HepG2 (hepatocellular carcinoma)"
  cat: "F"
- compound: "O=C(/C=C/c1cccnc1)NCCCCC1CCN(C(=O)c2ccccc2)CC1 [FK-866, reference compound]"
  tested on: "HepG2 (hepatocellular carcinoma)"
  cat: "T"
